Below, each of the compounds is paired with its reported residual activity value.
target: GRK6 (human); assay: radiometric filter-binding kinase assay, Kinase HotSpot; details: compound 0.5 µM; ATP 10 µM
Test Readout: residual activity

- Smiles String: "O=C1NC(=O)c2cc(Nc3ccc(F)cc3)c(Nc3ccc(F)cc3)cc21"
  Test Readout: "residual activity"
  Recorded Measurement: "98.7%"
- Smiles String: "O=C(O)c1ccc2c3c1cccc3c(=O)n1c3ccccc3nc21"
  Test Readout: "residual activity"
  Recorded Measurement: "91.4%"
- Smiles String: "O=c1[nH]c2ccccc2n1C1CCN(Cc2ccc(-c3nc4cc5[nH]cnc5cc4nc3-c3ccccc3)cc2)CC1"
  Test Readout: "residual activity"
  Recorded Measurement: "88%"
- Smiles String: "O=c1c(-c2ccc(F)cc2)c(-c2ccncc2)[nH]n1-c1ccc(Cl)cc1"
  Test Readout: "residual activity"
  Recorded Measurement: "90.1%"
- Smiles String: "N#C/C(=C1/Nc2ccccc2S1)c1ccnc(NCCc2cccnc2)n1"
  Test Readout: "residual activity"
  Recorded Measurement: "87.6%"
